Biological target: KRas G12D (Homo sapiens (Human), UniProt P01116, G12D)
Sequence (P01116 other isoform, or with tags, fused parts or gaps G12D): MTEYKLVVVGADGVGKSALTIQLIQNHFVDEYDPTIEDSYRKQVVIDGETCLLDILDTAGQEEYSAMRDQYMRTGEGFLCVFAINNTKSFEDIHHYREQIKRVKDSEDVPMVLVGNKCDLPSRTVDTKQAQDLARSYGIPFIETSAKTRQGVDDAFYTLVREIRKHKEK
Assay: KRas G12D Binding Assay (TR-FRET displacement)
Conditions: TR-FRET displacement of Cy5 labelled tracer, GDP-loaded KRAS G12D, 60 minute incubation at 22° C.
measurement_type: IC50 (nM)

>>> reported("COc1cc(-c2ncc3c(N4CC5CCC(C4)N5)nc(OC[C@@]45CCCN4C[C@H](F)C5)nc3c2F)c2ccccc2c1 (racemic)")
3080
>>> reported("Cc1cc2[nH]ncc2c(-c2ncc3c(N4CC5CCC(C4)N5)nc(OC[C@@]45CCCN4C[C@H](F)C5)nc3c2F)c1Cl (racemic)")
2.6
>>> reported("OCC1CCC2(COc3nc(N4C[C@H]5CC[C@@H](C4)N5)c4cnc(-c5cccc6cccc(Cl)c56)c(F)c4n3)CCCN12 (stereo partly drawn)")
2.1
